Source of measurements: the supplement of paper PMC7877785

Assay: self-splicing fitness, log relative to wild type (ln ratio); higher = more splicing; Tetrahymena group I intron in knt gene, E. coli kanamycin selection, DiMSum; sequences stand for … in CUCUCU…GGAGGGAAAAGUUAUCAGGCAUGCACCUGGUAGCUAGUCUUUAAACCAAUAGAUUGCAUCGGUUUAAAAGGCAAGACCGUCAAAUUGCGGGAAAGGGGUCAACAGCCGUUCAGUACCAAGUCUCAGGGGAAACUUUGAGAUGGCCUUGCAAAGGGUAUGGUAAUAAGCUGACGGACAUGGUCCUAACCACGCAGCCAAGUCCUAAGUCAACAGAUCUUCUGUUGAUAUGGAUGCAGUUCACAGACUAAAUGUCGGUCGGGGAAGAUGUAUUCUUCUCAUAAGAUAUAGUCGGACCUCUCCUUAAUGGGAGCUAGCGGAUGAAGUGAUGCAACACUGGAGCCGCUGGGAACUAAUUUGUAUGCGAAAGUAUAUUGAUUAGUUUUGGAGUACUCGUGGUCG;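 also: selection with 25 µg/mL kanamycin versus none on LB agar overnight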
Settings: 37 °C
Binary call on self-splicing fitness (ln): 1 from -0.7 upward, -1 beneath that.

Look over these answered cases.
{"ordered_residues": "UAGAAGCAAUAUUACGCAGG", "label": -1}
{"ordered_residues": "CUUAAGCAAUAUUACGCACU", "label": -1}
{"ordered_residues": "AAUGAGCAAUAUUACGCUAG", "label": -1}
{"ordered_residues": "UCCAAGCAAUAUUACGCAUA", "label": 1}

Request: Does CAAAAGCAAUAUUACGGUCA have a reported self-splicing fitness (ln) of at least -0.7?
Result: 1

Request: Does AAUUAGCAAUAUUACGCACA have a reported self-splicing fitness (ln) of at least -0.7?
Result: 1

Request: Does UCCUAGCAAUAUUACGACAU have a reported self-splicing fitness (ln) of at least -0.7?
Result: -1

Request: Does CCGUAGCAAUAUUACGUACA have a reported self-splicing fitness (ln) of at least -0.7?
Result: -1

Request: Does GCUGAGCAAUAUUACGUAGU have a reported self-splicing fitness (ln) of at least -0.7?
Result: -1

Request: Does GAUGAGCAAUAUUACGUACC have a reported self-splicing fitness (ln) of at least -0.7?
Result: -1

Request: Does UCCAAGCAAUAUUACGCCGA have a reported self-splicing fitness (ln) of at least -0.7?
Result: 1

Request: Does GUGUAGCAAUAUUACGGCGG have a reported self-splicing fitness (ln) of at least -0.7?
Result: -1

Request: Does UAGAAGCAAUAUUACGAGAC have a reported self-splicing fitness (ln) of at least -0.7?
Result: -1

Request: Does ACGGAGCAAUAUUACGACAU have a reported self-splicing fitness (ln) of at least -0.7?
Result: -1

Request: Does AGCUAGCAAUAUUACGUUUA have a reported self-splicing fitness (ln) of at least -0.7?
Result: -1
